# Assay: Toxicity liver stage against HepG2, at 10uM
# Assay type: cell-based
# Design: test concentration 10 uM, cell line HepG2-A16-CD81EGFP
# Conditions Used: human, HepG2-A16-CD81EGFP cells; read-out: INHIBITION
Reported Endpoint: cytotoxicity at 10 µM (%)
// note: answer is a bare numeric in %

Compound	Reported Endpoint	Unit Tag	Reported Value
CN1CCC(N2C[C@H](O)C[C@H]2c2nc(Cc3ccccc3)no2)CC1	cytotoxicity at 10 µM	%	10.7

Moving on to the next compound.
Query: Please report the recorded cytotoxicity at 10 µM for O=C(O)c1c(-c2ccncc2)ncc2c1CCN(CC1CCOC1)C2 (configuration not stated) .
Result: -100

----------
Each entry below lists one item and its recorded cytotoxicity at 10 µM value.
# Assay: Toxicity liver stage against HepG2, at 10uM
# Type: cell-based
# Design: test concentration 10 uM, cell line HepG2-A16-CD81EGFP
# Conditions Used: human, HepG2-A16-CD81EGFP cells; read-out: INHIBITION
The figure you give is taken to be in %; do not add the unit.

Record excerpt, results attached:
Compound	cytotoxicity at 10 µM (%)
CNc1cc2c(nn1)CCN(C(=O)c1ccc(-n3nccc3C)cc1)C2	-5.44
COc1cc(I)c(Cl)cc1C(=O)N(C)C	11
CCNC(=O)c1ccc(NC(=O)N(C)Cc2cc(C)on2)c(C)c1	6.2

Query: Looking for the measured cytotoxicity at 10 µM of COc1ccc2cc(C(=O)NCCNc3ccc(C)nn3)[nH]c2c1 , can you help?
Result: -3.09

Query: Repeat for the following compound: Cc1ccc(CN2C[C@H]3CN(C(=O)c4ccno4)CCN3C2=O)cc1
Result: -2.07

Query: Same question, Cc1cnc(NC(C)Cc2cccnc2)nc1N(C)C (stereo unspecified) this time
Result: -4.03

Query: Let us now turn to CC(C)CCN1CCc2[nH]nc(C(=O)N3CC=CC3)c2C1
Result: -121

Query: Next: CCOCC1CN(Cc2ccco2)Cc2nccn2C1 (stereo unspecified)
Result: -142

Query: Please do the same for O=C(NCc1ccco1)[C@@H]1CCO[C@@H]2CCN(c3ccncn3)C[C@H]21 as well.
Result: 0.118

Query: Consider next the compound CC(Oc1ccc(OCc2ncc(C(C)C)o2)cc1)C(N)=O (stereo unspecified) in the same way.
Result: -10.4

Query: Item: CN(Cc1ccsc1)C(=O)c1cc(S(=O)(=O)N(C)C)ccc1Cl
Result: 15

----------
# Assay: Toxicity liver stage against HepG2, at 10uM
# Format: cell-based
# Design: test concentration 10 uM, cell line HepG2-A16-CD81EGFP
# Conditions Used: human, HepG2-A16-CD81EGFP cells; read-out: INHIBITION
Reported Endpoint: cytotoxicity at 10 µM (%)
Please give a number only; it is taken to be in %.

Solved entries (count: 2):
Compound	cytotoxicity at 10 µM [%]
c1ccc(CCNC2CCc3ncnn3C2)nc1 (stereo not given)	-4.03
CO[C@@H]1CC[C@@H](NS(=O)(=O)c2cn(C)nc2C)[C@H]1O	-3.11

Query: GET /values?readout=cytotoxicity at 10 µM&item= O=C(Nc1cnccn1)[C@H]1CC[C@@H]2[C@@H](CCN2Cc2ccoc2)O1
Result: 8.86

Query: Cool, now Cn1cc(C[C@H]2[C@H](O)CCN2Cc2ccc3c(c2)OCO3)cn1
Result: -80.5

Query: Subsequent entry: CC(C)S(=O)(=O)NC(=O)CC(c1ccccc1)C(F)(F)F (stereo not given)
Result: -43.9

Query: Same lookup for O=C(c1ccco1)N1C[C@@H]2OCCN(c3ncccn3)[C@@H]2C1 , please.
Result: 6.4

Query: Also O=C(NCCc1ccncc1)[C@H]1CC[C@@H]2[C@@H](CCN2C2CCC2)O1 ?
Result: -2.3

Query: Would you kindly repeat that for Cc1n[nH]cc1CNC(=O)CCCc1cccs1 ?
Result: -52.3

Attribution: ChEMBL document CHEMBL4513216
